assayTarget: HEK293 Galpha15/GCaMP6s without NPYLR7, calcium fluorescence
assaySummary: nonspecific activation in parental Galpha15/GCaMP6s cells – cell-based, HEK293 lacking NPYLR7, counter-screen for mosquito NPYLR7 agonist project, dose response (AID 1259426);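 further: potency for a rise in fluorescence over baseline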
The source made the active and inactive calls.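 How the source made its calls: active means EC50 under a set limit in control cells lacking the mosquito receptor, marking a fluorescence artifact; inactive means the rest.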
The reply should name one outcome from active, inactive

Use these answered entries as a reference point.
molecule | assayTarget | classAssignment
Cc1ccc(CNC(=O)NC(c2ccc3c(c2)OCCCO3)C(C)C)cc1F (stereo unspecified) | HEK293 Galpha15/GCaMP6s without NPYLR7, calcium fluorescence | inactive
O=C(Cc1ccc2c(c1)CCC2)NCC1CCN(c2ccccc2)C1 (stereo unspecified) | HEK293 Galpha15/GCaMP6s without NPYLR7, calcium fluorescence | inactive
CCOC(=O)C1CCCN(c2nc3nonc3nc2N2CCSCC2)C1 (stereo unspecified) | HEK293 Galpha15/GCaMP6s without NPYLR7, calcium fluorescence | inactive

Query: Field: outcome | Entry: CCCc1[nH]n(-c2ccc(Cl)cc2)c(=O)c1/C=C1\NC(=O)N(Cc2ccc(C)cc2)C1=O
Result: inactive

Query: Hi, do you know how COc1cccc(CN2C(=O)c3cccc(N)c3C2=O)c1 came out in this test?
Result: inactive

Query: I'd appreciate the recorded outcome for N#Cc1cccc(C(=O)N2CCN(C(c3ccccc3)c3ccc(Br)cc3)CC2)c1 (stereo unspecified) from this test.
Result: inactive
